# Assay name: HCT116 colon cancer cell growth inhibition, primary screen, CellTiter-Glo luminescence, NPC library (AID 1117342)
# Run parameters: at 20 µM (top of the series)
Calls of active or inactive are those of the source.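 The calls were made as follows: active = compounds that lower survival of HCT116 colon cancer cells in the luminescence readout, no numeric limit stated; inactive = the rest.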
Provide the recorded inhibition of viability for the entries that follow.

# Compound, inhibition of viability
records = [
    ("Cc1ccc(S(=O)(=O)NC(=O)NN2CC3CCCC3C2)cc1 (centres undefined)", "-22.6% (inactive)"),
]

For every item below, please supply its inhibition of viability.
1. O=NN(CCCl)C(=O)NC1CCCCC1
2. CC(C)NC[C@@H](O)COc1cccc2ccccc12
3. O=c1cc[nH]c(=S)[nH]1
4. COCCCC/C(=N\OCCN)c1ccc(C(F)(F)F)cc1
5. Nc1ccc(S(=O)(=O)Nc2ccccn2)cc1
6. CC(=O)Nc1ccc(CC(=O)O)cc1
7. O=C(O)CCNC(=O)c1ccc(N=Nc2ccc(O)c(C(=O)O)c2)cc1

["-0.2% (inactive)", "0.8% (inactive)", "1.83% (inactive)", "37.3% (inactive)", "-12% (inactive)", "-11% (inactive)", "6.1% (inactive)"]

For every item below, please supply its inhibition of viability.
1. CCn1cc(C(=O)O)c(=O)c2cnc(N3CCNCC3)nc21
2. OC[C@H]1O[C@@H](Oc2ccc(O)cc2)[C@H](O)[C@@H](O)[C@@H]1O

1. -0.3% (inactive)
2. -1.8% (inactive)

For every item below, please supply its inhibition of viability.
1. Oc1c(Cl)cc(Cl)cc1Sc1cc(Cl)cc(Cl)c1O
2. Cc1ccnc(NS(=O)(=O)c2ccc(N)cc2)n1
3. C[C@H](NC(CCc1ccccc1)C(=O)O)C(=O)N1CCC[C@H]1C(=O)O (some centres undefined)
4. CC(c1cc2ccccc2s1)N(O)C(N)=O (centres undefined)
5. Cc1ccc(C(=O)c2ccc(CC(=O)O)n2C)cc1
6. CCCCCCCCCCCCCCCCCCOCC(O)CO (centres undefined)

1: 103% (active); 2: 2.4% (inactive); 3: 2.7% (inactive); 4: -15.9% (inactive); 5: -3.2% (inactive); 6: -10.7% (inactive)

* * *

# Assay name: glutamate transport activators, MN-1 cells, MN-1 cell line (AID 1612);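 also: tested at 1 µM final; 0% = mean of DMSO vehicle wells on each plate; positive means more glutamate uptake than control and negative means less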
# Run parameters: MN-1 motor neuron cells, stronger effect = higher value
Provide the recorded glutamate uptake change for the entries that follow.
Give bare numbers, in %.

Consider the following illustrative entries.
# Molecule, Units label, glutamate uptake change
data = [
    ("CCC(=O)O[C@H]1[C@H](O[C@@H]2[C@@H](C)[C@H](O[C@H]3C[C@@](C)(OC)[C@@H](O)[C@H](C)O3)[C@@H](C)C(=O)O[C@H](CC)[C@@](C)(O)[C@H](O)[C@@H](C)C(=O)[C@H](C)C[C@@]2(C)O)O[C@H](C)C[C@@H]1N(C)C", "%", -11.5),
    ("CC(C)(Oc1ccc(Cl)cc1)C(=O)O", "%", 12.1),
    ("CCC(Cc1c(I)cc(I)c(N)c1I)C(=O)O (stereo not given)", "%", 7.36),
    ("CCN1CCCC(OC(=O)C(c2ccccc2)c2ccccc2)C1 (stereo not given)", "%", 7.33),
    ("Nc1nccs1", "%", 28.6),
    ("COc1c2occc2c(OC)c2c(=O)cc(C)oc12", "%", -7.03),
    ("CNC[C@H](O)c1cccc(O)c1", "%", 3.44),
    ("CCCCC(CC)CN=C(N)NC(N)=NCCCCCCN=C(N)NC(N)=NCC(CC)CCCC (stereo not given)", "%", -50.4),
]

For every item below, please supply its glutamate uptake change.
1. CC1=CC(=O)c2ccccc2C1=O
2. CCCCC1(COC(=O)CCC(=O)O)C(=O)N(c2ccccc2)N(c2ccccc2)C1=O
3. Nc1ccc(S(=O)(=O)Nc2cnc3ccccc3n2)cc1

[-13.7, -2.57, 6.13]

For every item below, please supply its glutamate uptake change.
1. NNc1nncc2ccccc12
2. O=C(O)c1ccccc1OP(=O)(O)O
3. CC(=O)Oc1ccc(C(c2ccc(OC(C)=O)cc2)c2ccccn2)cc1
4. C[N+](C)(C)CCOC(N)=O
5. CN(C)/N=N/c1nc[nH]c1C(N)=O

[4.84, -7.63, 13, -6.66, -11.4]

* * *

# Assay name: EMT-state selective cytotoxicity in co-culture – imaging, PC-3E GFP, TEM4-18 mCherry, primary screen (AID 1345086);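 also: normalised mesenchymal count divided by normalised epithelial count so high means epithelial killing; cells exposed to compound for 72 h before imaging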
# Run parameters: PC-3E GFP / TEM4-18 mCherry co-culture, imaging cell counts; at 1 µM; actives lie on both sides; counts scaled to control wells, 1 = unselective
# red/green cell ratio (normalised) binned as b0: < 0.9; b1: ≥ 0.9 and < 1; b2: ≥ 1

Use these answered entries as a reference point.
# Molecule, Label
records = [
    ("CN1CCN2c3ccccc3Cc3ccccc3C2C1 (stereo not given)", "b2"),
    ("CCCCOc1cc(C(=O)NCCN(CC)CC)c2ccccc2n1", "b1"),
    ("N=C(N)N", "b2"),
    ("NC(=O)c1ncn([C@@H]2O[C@H](CO)[C@@H](O)[C@H]2O)n1", "b0"),
]

Assign a category based on measured red/green cell ratio (normalised) for CCCCCCCCNC(C)C(O)c1ccc(SC(C)C)cc1 (stereo not given) and give only the class name.
b2

One more molecule: CCN(CC)CCNC(=O)COc1ccc(OC)cc1
b2

One more molecule: Cc1ccnc(NS(=O)(=O)c2ccc(N)cc2)n1
b2

One more molecule: CC(C)(Oc1ccc(Cl)cc1)C(=O)O
b0

One more molecule: CCOC(=O)NNc1nncc2ccccc12
b1

* * *

# Assay name: viability loss with induced miR-34 in A549 – imaging, A549 dox-inducible miR-34, nuclei and caspase counts, primary screen (AID 1347080)
# Run parameters: A549 miR-34 inducible, Hoechst nuclei count, 48 h; measured here: relative caspase fold change +Dox/-Dox
Please use Y whenever fold change is not below 2, and N whenever it is.

# Molecule, Label
records = [
    ("CC(=O)OCC(COC(C)=O)OC(C)=O", "Y"),
    ("OC(CCN1CCCCC1)(c1ccccc1)c1ccccc1", "N"),
    ("CCN(CC)CCOc1ccc(/C(=C(\\Cl)c2ccccc2)c2ccccc2)cc1", "N"),
]

Is fold change at least 2? Consider CCN(CC)CCOC(=O)C(c1ccccc1)C1CCCCC1 (stereo not given)
N

One more molecule: O=c1c(-c2ccccc2)c1-c1ccccc1
N

* * *

# Assay name: reduced SW480 viability measured with CellTiter-Glo, NPC library, primary (AID 1117343)
# Run parameters: CellTiter-Glo luminescence; at 20 µM (top of the series)
Active and inactive are the calls of the source.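 Rule for the calls: active = compounds that lower viability of the colon cancer cells in the luminescence readout, with no numeric limit stated; inactive = the rest.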
Log the outcome using a class from y (active), n (inactive)

Use these answered entries as a reference point.
# Compound, Label
measured = [
    ("CS(=O)(=O)c1ccc([C@@H](O)[C@@H](CO)NC(=O)C(Cl)Cl)cc1", "n"),
    ("Cc1cccc(C)c1OCC(C)N (stereo not drawn)", "n"),
    ("Cc1cnc(C(=O)O)c[n+]1[O-]", "n"),
    ("COc1cc(C(=O)NC2CCCNC2)cc(OC)c1OC (stereo not drawn)", "n"),
    ("COc1cc(OC)c(C(=O)CCCN2CCCC2)c(OC)c1", "n"),
]

Which result was noted for this compound in the test: NC1CCN(c2nc3c(cc2F)c(=O)c(C(=O)O)cn3-c2ccc(F)cc2F)C1 (stereo not drawn)
n

One more compound: CC[C@]12CCCN3CCc4c(n(c5ccccc45)[C@@](O)(C(=O)OC)C1)[C@@H]32
n

One more compound: Nc1ccc(C(=O)O)cc1
n

One more compound: CN(C)[C@@H]1C(=O)C(C(N)=O)=C(O)[C@@]2(O)C(=O)C3=C(O)c4c(O)ccc(Cl)c4[C@@H](O)[C@H]3C[C@@H]12
y

One more compound: Cc1cccc(C)c1NC(=O)C(C)N (stereo not drawn)
n

One more compound: Nc1nc2c(ncn2COC(CO)CO)c(=O)[nH]1
n

* * *

# Assay name: BT084 cell growth, single and combined drugs, ICGC_MB145, cisplatin and BGB IC40 combos (AID 1671461);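 also: cells exposed to drugs for 96 hours; 0% = vehicle DMSO and 100% = high DMSO full killing control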
# Run parameters: BT084 medulloblastoma cells, drug combinations, at 0.5 µM, stronger effect = higher value
Quantity kind: inhibition (%)
Numbers only, in %.

Consider the following illustrative entries.
# Compound, Quantity kind, Value measured
data = [
    ("Cc1ccnc2c1NC(=O)c1cccnc1N2C1CC1", "inhibition", -28.8),
    ("CCn1cc(C(=O)O)c(=O)c2cc3c(cc21)OCO3", "inhibition", -9.83),
    ("CC(N)C12CC3CC(CC(C3)C1)C2 (stereo not drawn)", "inhibition", -35.2),
    ("CCN1CCN(c2cc3c(cc2F)c(=O)c(C(=O)O)cn3C2CC2)CC1", "inhibition", -38.8),
    ("NC(=O)NO", "inhibition", 3.97),
]

For every item below, please supply its inhibition.
1. C[C@H]1COc2c(C3(N)CC3)c(F)cc3c(=O)c(C(=O)O)cn1c23
2. Cc1oncc1C(=O)Nc1ccc(C(F)(F)F)cc1
3. O=C(O)CCCCCCCC(=O)O

-36.3
5.65
-17.8
